- System: 621-102 (TSC2-deficient)
- procedure text: relative viability vs DMSO; higher = less cytotoxic
- details: 1 µM; serum: 10% FBS; 72 h
measured quantity: relative viability (%)
Record the value in %, omitting the unit from your answer.

I looked up CN(C)C(=O)Oc1cccc([N+](C)(C)C)c1 [Neostigmine bromide (Prostigmin)] and its relative viability for 621-102 (TSC2-deficient) was 102

Result for C[C@]12C=CC(=O)N[C@@H]1CC[C@@H]1[C@@H]2CC[C@]2(C)[C@@H](C(=O)Nc3cc(C(F)(F)F)ccc3C(F)(F)F)CC[C@@H]12 [Dutasteride (Avodart)] , tested on 621-102 (TSC2-deficient), relative viability: 108

Summary line: "CO[C@@H](C(=O)N1Cc2[nH]nc(NC(=O)c3ccc(N4CCN(C)CC4)cc3)c2C1)c1ccccc1" , 621-102 (TSC2-deficient), reported relative viability = 64.1

# lookup: "CC(C)c1cc(C(C)C)c(CC(=O)NS(=O)(=O)Oc2c(C(C)C)cccc2C(C)C)c(C(C)C)c1" on 621-102 (TSC2-deficient), relative viability = 104

---

- Tested on: 621-103 (TSC2-rescued)
- procedure text: relative viability vs DMSO; higher = less cytotoxic
- details: 0.01 µM; serum: 10% FBS; 72 h
Where a name gives a salt, the structure may show the parent alone.
measured quantity: relative viability (%)
Kindly answer with a numeric value in %, unit omitted.

What the record says about CNCCC(Oc1ccc(C(F)(F)F)cc1)c1ccccc1 (centres undefined) [Fluoxetine HCl] : relative viability is 106

Field relative viability (entry "CNC(=O)c1ccc(C)c(-n2c(C)cc(OCc3ccc(F)cc3F)c(Br)c2=O)c1" ) reads 99

// field: relative viability; key: "CC(C)(C)OC(=O)N[C@H]1CCCCC/C=C\[C@@H]2C[C@@]2(C(=O)NS(=O)(=O)C2CC2)NC(=O)[C@@H]2C[C@@H](OC(=O)N3Cc4cccc(F)c4C3)CN2C1=O" ; value = 101

Noted for COCCOC(=O)C1=C(C)NC(C)=C(C(=O)OC/C=C/c2ccccc2)C1c1cccc([N+](=O)[O-])c1 (centres undefined) : its relative viability reads 106

---

- Test system: UMB1949 (TSC2-deficient);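 further: renal angiomyolipoma cell lines screened in 384-well plates, viability normalized per plate to DMSO-treated cells, each plate carrying 50 nM rapamycin and 1 µM staurosporine controls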
- procedure text: relative viability vs DMSO (fraction); higher = less cytotoxic
- details: 0.32 nM; serum: 0.1% FBS; 72 h
Where a name gives a salt, the structure may show the parent alone.
Please respond with reported relative viability for every item in the list.

Input Cc1cc(Nc2cc(N3CCN(C)CC3)nc(Sc3ccc(NC(=O)C4CC4)cc3)n2)n[nH]1 [VX-680 (MK-0457)] . Output relative viability: 0.872

// field: relative viability; key: "CCc1cccc(CC)c1NC(=O)N1Cc2[nH]nc(NC(=O)c3ccc(N4CCN(C)CC4)cc3)c2C1" ; value = 1.17

response.value for Cn1cc(-c2ccc3nnc(Sc4ccc5ncccc5c4)n3n2)cn1 [SGX-523] (field: relative viability) = 1.17

relative viability reported for this compound CO[C@H]1C[C@@H]2CC[C@@H](C)[C@@](O)(O2)C(=O)C(=O)N2CCCC[C@H]2C(=O)O[C@H]([C@H](C)C[C@@H]2CC[C@@H](OP(C)(C)=O)[C@H](OC)C2)CC(=O)[C@H](C)/C=C(\C)[C@@H](O)[C@@H](OC)C(=O)[C@H](C)C[C@H](C)/C=C/C=C/C=C/1C [Deforolimus(MK-8669)] : 0.973

Reported relative viability ( Nc1ncn([C@H]2C[C@H](O)[C@@H](CO)O2)c(=O)n1 [Decitabine] ) = 0.99

Recorded result, COC1=CC(c2cc3ccccc3[nH]2)=N/C1=C\c1[nH]c(C)cc1C [Obatoclax Mesylate] , relative viability: 1.06

Per the records, this compound ( CC(C)c1cc(C(C)C)c(CC(=O)NS(=O)(=O)Oc2c(C(C)C)cccc2C(C)C)c(C(C)C)c1 [Avasimibe] ) has relative viability equal to 1.19

The compound listed as Cc1ccc(NC(=O)c2ccc(CN3CCN(C)CC3)cc2)cc1Nc1nc(-c2cccnc2)cs1 [Masitinib(AB1010)] shows relative viability equal to 1.16

Ref: the supplement of paper PMC8960247
